# Study System: NaV1.5 (Homo sapiens (Human))
# Sequence (Q14524 other isoform, or with tags, fused parts or gaps): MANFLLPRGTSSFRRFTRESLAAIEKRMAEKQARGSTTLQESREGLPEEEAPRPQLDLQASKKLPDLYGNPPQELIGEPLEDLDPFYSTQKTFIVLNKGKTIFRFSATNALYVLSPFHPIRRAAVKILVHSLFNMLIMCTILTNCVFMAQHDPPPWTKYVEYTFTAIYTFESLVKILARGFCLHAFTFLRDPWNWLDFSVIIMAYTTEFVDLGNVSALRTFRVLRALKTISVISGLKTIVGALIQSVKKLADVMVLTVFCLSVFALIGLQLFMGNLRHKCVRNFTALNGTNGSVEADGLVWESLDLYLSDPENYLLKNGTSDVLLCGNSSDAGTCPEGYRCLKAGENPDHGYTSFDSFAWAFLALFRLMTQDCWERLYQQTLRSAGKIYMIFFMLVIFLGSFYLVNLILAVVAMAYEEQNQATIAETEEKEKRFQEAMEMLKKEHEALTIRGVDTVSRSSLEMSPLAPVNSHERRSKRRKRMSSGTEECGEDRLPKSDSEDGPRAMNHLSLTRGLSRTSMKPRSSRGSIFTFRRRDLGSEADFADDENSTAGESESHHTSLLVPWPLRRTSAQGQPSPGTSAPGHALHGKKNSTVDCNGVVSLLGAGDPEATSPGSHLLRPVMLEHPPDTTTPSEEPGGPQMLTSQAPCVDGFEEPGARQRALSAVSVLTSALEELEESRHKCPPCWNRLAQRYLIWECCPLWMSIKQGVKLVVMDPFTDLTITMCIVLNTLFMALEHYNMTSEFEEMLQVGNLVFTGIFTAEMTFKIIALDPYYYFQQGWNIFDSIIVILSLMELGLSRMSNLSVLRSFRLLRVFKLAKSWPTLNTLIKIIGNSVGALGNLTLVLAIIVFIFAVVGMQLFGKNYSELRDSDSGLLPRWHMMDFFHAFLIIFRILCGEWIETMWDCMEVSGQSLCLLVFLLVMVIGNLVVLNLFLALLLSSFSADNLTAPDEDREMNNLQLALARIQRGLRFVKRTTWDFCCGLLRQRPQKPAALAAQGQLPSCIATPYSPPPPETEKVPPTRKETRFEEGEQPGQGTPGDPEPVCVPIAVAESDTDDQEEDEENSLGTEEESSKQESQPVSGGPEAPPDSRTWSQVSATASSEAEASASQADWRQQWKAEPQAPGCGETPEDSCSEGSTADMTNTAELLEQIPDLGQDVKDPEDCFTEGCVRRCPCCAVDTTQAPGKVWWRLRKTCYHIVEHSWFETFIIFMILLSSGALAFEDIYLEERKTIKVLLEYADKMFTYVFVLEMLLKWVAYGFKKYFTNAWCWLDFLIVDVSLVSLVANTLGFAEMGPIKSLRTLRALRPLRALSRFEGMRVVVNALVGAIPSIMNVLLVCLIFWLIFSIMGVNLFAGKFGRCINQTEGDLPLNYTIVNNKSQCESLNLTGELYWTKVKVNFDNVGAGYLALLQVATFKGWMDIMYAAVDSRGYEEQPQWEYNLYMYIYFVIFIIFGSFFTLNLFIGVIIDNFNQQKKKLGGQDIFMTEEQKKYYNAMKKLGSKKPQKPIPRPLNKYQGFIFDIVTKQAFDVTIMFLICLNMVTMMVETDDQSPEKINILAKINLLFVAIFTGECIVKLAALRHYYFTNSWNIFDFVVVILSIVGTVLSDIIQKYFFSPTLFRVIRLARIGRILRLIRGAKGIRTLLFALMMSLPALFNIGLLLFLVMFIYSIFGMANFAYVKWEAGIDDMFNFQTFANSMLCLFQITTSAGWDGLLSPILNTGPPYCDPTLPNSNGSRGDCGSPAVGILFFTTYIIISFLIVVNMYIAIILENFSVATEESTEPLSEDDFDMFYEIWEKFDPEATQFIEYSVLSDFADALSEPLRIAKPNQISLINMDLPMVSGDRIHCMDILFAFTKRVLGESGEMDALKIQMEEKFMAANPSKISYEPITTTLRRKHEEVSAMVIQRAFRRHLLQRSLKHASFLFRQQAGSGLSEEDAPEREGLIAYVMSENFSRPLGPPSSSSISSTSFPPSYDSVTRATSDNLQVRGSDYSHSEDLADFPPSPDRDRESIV
# Protocol Details: Sodium Influx Assay (Flux), NaV1.5
# Condition Details: read-out: Flux NaV1.5 IC50; Trex HEK293 cells, ANG2 dye; arithmetic mean
pIC50: −log10 of the molar value. Counter-ions that a name gives are not always drawn.
So basically: pIC50 at 5 or higher? That is 1.0. Lower than 5? That is 0.0.

Solved entries (count: 3):
- Compound: "Cc1cccc(CN2CC[C@H](N(C)c3cc(F)c(S(=O)(=O)Nc4cscn4)cc3Cl)C2)n1"
  Category: 0.0
- Compound: "CC1(Oc2ccc(S(=O)(=O)Nc3nccs3)cc2Cl)CCN(Cc2cccc(C(F)F)c2)CC1"
  Category: 1.0
- Compound: "Cc1cc(S(=O)(=O)Nc2cscn2)c(F)cc1OC1CCN(Cc2ccccc2)CC1"
  Category: 0.0

Does the reported pIC50 for CN(c1cc(F)c(S(=O)(=O)Nc2cscn2)cc1Cl)[C@H]1CCN(Cc2ccc(F)cc2)C1 fall at or above the 5 mark?
0.0

Does the reported pIC50 for CN(c1cc(F)c(S(=O)(=O)Nc2cscn2)cc1Cl)[C@H]1CCN(Cc2cccc(OC(F)F)c2)C1 [Example 168, formate] fall at or above the 5 mark?
1.0

Does the reported pIC50 for C[C@H](c1ccccc1)N1CCC(Oc2ccc(S(=O)(=O)Nc3ccon3)cc2Cl)CC1 [Example 305, formate] fall at or above the 5 mark?
0.0

Does the reported pIC50 for CN(C)c1ccc(CN2CC[C@H](N(C)c3cc(F)c(S(=O)(=O)Nc4cscn4)cc3Cl)C2)cc1 fall at or above the 5 mark?
0.0

Does the reported pIC50 for CC1(Oc2ccc(S(=O)(=O)Nc3nccs3)cc2Cl)CCN(Cc2cccc(Cl)c2)CC1 fall at or above the 5 mark?
1.0

Does the reported pIC50 for O=S(=O)(Nc1ncns1)c1ccc(NC2CCN(Cc3ccccc3)CC2)c(Cl)c1 [Example 46, 2,2,2-trifluoroacetate] fall at or above the 5 mark?
0.0

Does the reported pIC50 for CN(c1ccc(S(=O)(=O)Nc2nccs2)cc1Cl)[C@H]1CCN(Cc2cccc(Cl)c2)C1 fall at or above the 5 mark?
1.0

Does the reported pIC50 for C[C@H](c1ccccc1)N1CC[C@H](N(C)c2ccc(S(=O)(=O)Nc3nccs3)cc2Cl)C1 fall at or above the 5 mark?
0.0

Does the reported pIC50 for CN(c1cc(F)c(S(=O)(=O)Nc2cscn2)cc1Cl)[C@H]1CCN(Cc2ccnc(C(F)(F)F)c2)C1 fall at or above the 5 mark?
0.0

Does the reported pIC50 for CN(c1ccc(S(=O)(=O)Nc2cscn2)cc1Cl)[C@H]1CCN(C(C)(C)c2ccccc2)C1 fall at or above the 5 mark?
1.0

* * *

# Study System: NaV1.5 (Homo sapiens (Human))
# Protocol Details: Sodium Influx Assay (Flux), NaV1.5
# Condition Details: read-out: Flux NaV1.5 IC50; Trex HEK293 cells, ANG2 dye; arithmetic mean
Counter-ions that a name gives are not always drawn.
IC50 overview
Return type: number; implicit unit µM.

# example entries with known answers
- Molecule: "Cc1cc(S(=O)(=O)Nc2cscn2)c(F)cc1N(C)[C@H]1CCN([C@H]2C[C@@H](c3ccccc3)C2)C1"
  IC50, µM: 2.8
- Molecule: "CN(c1cc(F)c(S(=O)(=O)Nc2cccc(F)n2)cc1Cl)[C@H]1CCN(Cc2ccccc2)C1 [Example 40, bis(trifluoroacetic acid) salt]"
  IC50, µM: 15.8
- Molecule: "CN(c1cc(F)c(S(=O)(=O)Nc2cscn2)cc1Cl)[C@H]1CCN(C2(c3ccccc3F)CCC2)C1 [Example 244, formate]"
  IC50, µM: 5.08

Now look at this entry.
// Input: CN(c1cc(F)c(S(=O)(=O)Nc2cscn2)cc1Cl)[C@H]1CCN([C@H]2CCc3ccccc32)C1 [Example 249, 2,2,2-trifluoroacetate] . Output its IC50 only.
17.4

Cited source: patent US10246453B2
